- System: HOP-18 NSCLC
- Procedure Text: NCI tumour cell line growth inhibition, 48 h

| Compound | Assay System | TGI |
| --- | --- | --- |
| CCCN1C(=O)/C(=C(/O)C(=O)OCC)C(c2ccc(OC)c(OC)c2)C1=O (stereo unspecified) | HOP-18 NSCLC | > 100 µM |
| Cc1ccc([Se][Se]c2ccc(C)cc2)cc1 | HOP-18 NSCLC | 33.5 µM |
| O=C(/C=C/c1ccc(Cl)cc1)c1ccncc1 | HOP-18 NSCLC | > 100 µM |
| Cc1cccc(N2C(=O)C(=O)C(c3nc4ccccc4s3)C(=O)C2=O)c1C | HOP-18 NSCLC | > 100 µM |
| C/C(=C/c1c(C)[nH]c(=O)[nH]c1=O)C(=O)O | HOP-18 NSCLC | > 1380 µM |
| Cc1nn(C)c(=S)n(C)c1=O | HOP-18 NSCLC | 4.89 µM |

---

Recorded TGI by entry
- Test system: HOP-92 NSCLC
- Procedure Text: NCI tumour cell line growth inhibition, 48 h

| Compound | TGI |
| --- | --- |
| Cc1ccccc1NC(=O)c1sc2nc3c(cc2c1N)C(=O)CCC3 | > 100 µM |
| Cc1ccc(C2(c3ccc(C)c(O)c3C)CCN(C)CC2)c(C)c1O | > 100 µM |
| Nc1ccc(-c2nc3cc(F)ccc3s2)cc1 | > 93.1 µM |
| Nc1c(O)c(S(=O)(=O)O)c(O)c2c1C(=O)c1ccccc1C2=O | 4.65 µM |
| COC(=O)c1ccccc1N=Cc1ccc(N(CCC#N)S(=O)(=O)c2ccccc2)cc1 | > 100 µM |
| CC1=N/C(=C\c2ccc([N+](=O)[O-])cc2)C(=O)O1 | > 100 µM |
| CC(C)(C)c1cc(C2NC(=O)NC2=O)cc(C(C)(C)C)c1O (stereo not given) | > 100 µM |
| COC(=O)[C@]12CC[C@@H](C)[C@H](C)[C@@H]1C1=CC[C@@H]3[C@@]4(C)C=C(O)C(=O)C(C)=C4CC[C@@]3(C)[C@]1(C)CC2 | 26.2 µM |
| Cc1cnc2[nH]c(-c3cccc(Cl)c3)cc(=O)c2c1 | > 100 µM |
| Cc1nn(C(=O)c2ccc(Cl)cc2)c2c1C(c1ccco1)SC(N)=N2 (stereo not given) | > 10 µM |

---

- Tested on: SF-539 CNS
- Procedure Text: NCI tumour cell line growth inhibition, 48 h
# TGI >= 9 µM gives yes (1), anything below gives no (0)

| Compound | Category |
| --- | --- |
| O=[N+]([O-])c1cc(Cl)ccc1S(=O)(=O)c1cc(Cl)cc2c1NCCC2 | yes (1) |
| COC(=O)c1ccccc1N=Cc1ccc(N(CCC#N)S(=O)(=O)c2ccccc2)cc1 | yes (1) |
| CC(C)(CCC(C)(C)c1ccccc1)c1ccccc1 | yes (1) |
| C/C(=N\NC(=O)N/N=C(\C)c1ccccn1)c1ccccn1 | no (0) |
| Cn1cnc([N+](=O)[O-])c1Sc1nnc(C(F)(F)F)n1C | yes (1) |
| O=C1C(=O)c2c(nc3ncccn23)-c2ccccc21 | no (0) |
| CC(C)(C)c1ccc(O)c(C(O)c2cccnc2)c1 (stereo unspecified) | yes (1) |
| CC(C)=CCC/C(C)=C/CC/C(C)=C/CSc1ccc(Cl)cc1C(=O)O | yes (1) |
| c1ccc2c(c1)ccc1c3ccccc3ccc21 | yes (1) |
| O=C(NC(CO)CO)c1ccc2cc(C(=O)N3CC(CCl)c4ccc([N+](=O)[O-])cc43)[nH]c2c1 (stereo unspecified) | yes (1) |
| C[C@@]12CCC[C@@](C)(C(=O)O)C1CC[C@@]13CC(=O)[C@@](CO)(CCC12)C3 (stereo partly specified) | yes (1) |
| COc1cnnc2c(C)c(-c3ccccc3)nn12 | yes (1) |
| CC(=O)OC1C(O)C(C)OC(OC(=O)C2CCC3C(C2)OC2(CC(OC(=O)/C=C/c4ccccc4)C(C)CO2)C32CO2)C1OC1OC(C)C(O)C(O)C1O (stereo unspecified) | no (0) |
| CC1CN=C(N(C)C(=O)Nc2ccc(Cl)c(Cl)c2)S1 (stereo unspecified) | yes (1) |
| Cc1nn(C)c(=S)n(C)c1=O | yes (1) |
| c1ccc2nn(C3CCCCO3)nc2c1 (stereo unspecified) | yes (1) |
| CC(=O)OC1=C2C(CC3C4CC=C5CC(OC(C)=O)CCC5(C)C4CCC23C)C2C(=O)N(Cc3ccccc3)C(=O)C2C1 (stereo unspecified) | yes (1) |
| O=C1C=C(Nc2nc(C(=O)O)cc(=O)[nH]2)c2ccccc2C1=O | yes (1) |
| O=C1C=C(NCCc2cc(Br)c(O)c(Br)c2)C(=O)c2[nH]cnc21 | yes (1) |
| COc1ccc(-c2[nH]ncc2-c2cc(OC)c(OC)c(OC)c2)cc1 | no (0) |

---

- System: UACC-257 melanoma
- Procedure Text: NCI tumour cell line growth inhibition, 48 h
Recorded TGI by entry

| Molecule | TGI |
| --- | --- |
| CCOC(=O)/C=C(/C(=O)OCC)n1ccc(=O)[nH]c1=O | 25.2 µM |
| COc1ccc(/C=C/C(C(=O)O)C(=O)O)cc1 | > 100 µM |
| C=C1C(=O)O[C@H]2[C@H]1CC(=O)/C(C)=C\CC[C@@]1(C)O[C@@H]21 | 6.99 µg/mL |
| Nc1ccc(-c2nc3cc(F)ccc3s2)cc1 | > 100 µM |
| CCOC(=O)/C=C1/Nc2cc(F)c(F)cc2NC1=O | > 100 µM |
| COc1cc(C2c3cc4c(cc3OC(N3CCOCC3)C2C)OCO4)cc(OC)c1OC(C)=O (stereo unspecified) | > 100 µM |
| CCC(C)CC(CC)NCCN1CCN(C(CC)CC(C)CC)C1=S (stereo unspecified) | 3.1 µM |
| O=C(Nc1cccc(C(F)(F)F)c1)c1cc(-c2ccccc2)nc(=S)[nH]1 | > 100 µM |
| O=[N+]([O-])c1ccc(Cl)cc1N/N=C/c1cccs1 | > 100 µM |
| CC1=C(c2cc(C(=O)Nc3cccc(C(F)(F)F)c3)nc(NC#N)n2)Sc2ccccc2N1 | > 100 µM |
| CN1CCN(c2c(O)c3c(c(O)c2Cl)C(=O)C=CC3=O)CC1 | 1.58 µM |
| CC12CCC(C1)C(C)(C)C2OC(=O)c1ccccc1C(=O)O (stereo unspecified) | > 100 µM |
| CC(C)[C@@H](CS(=O)(=O)C(C)C)N1C(=O)[C@@](C)(CC(=O)O)C[C@H](c2cccc(Cl)c2)[C@H]1c1ccc(Cl)cc1 | 6.82 µM |
| Cc1[nH]nc(C(=O)Nc2n[nH]c3ccccc23)c1[N+](=O)[O-] | > 100 µM |
| O=C(O/N=C1/CCCC/C1=C\c1ccccc1)c1ccc(Cl)cc1 | > 100 µM |
| CC(C)(C)n1cc(-c2ccnc(NCCNS(=O)(=O)c3cccc4ccccc34)c2)c(-c2cccc(F)c2)n1 | 86.7 µM |
| Cn1cnc([N+](=O)[O-])c1Sc1nnc(C(F)(F)F)n1C | 32.9 µM |
| CC(=O)OC1=C2C(CC3C4CC=C5CC(OC(C)=O)CCC5(C)C4CCC23C)C2C(=O)N(Cc3ccccc3)C(=O)C2C1 (stereo unspecified) | > 100 µM |
| Cc1nc2sccn2c1C(=O)OCCOCCOCCOCCOC(=O)c1c(C)nc2sccn12 | > 100 µM |
| O=C1/C(=C2\SCC(=O)N2c2ccccc2)SC(=S)N1c1ccccc1 | > 100 µM |
| COc1cccc2c(Nc3ccc(C(=O)NCCN(C)C)cc3)cc(-c3ccccc3)nc12 | 29.9 µM |

---

- Tested on: MALME-3M melanoma
- Procedure Text: NCI tumour cell line growth inhibition, 48 h
Recorded Metric: GI50

| Compound | Recorded Metric | Obs Value |
| --- | --- | --- |
| C#CC#CC#CC#CC#CC#CC#CC#CCC1OC[C@H](COC(=O)O[C@@H](C(=O)O[C@H]2C[C@@]3(O)[C@@H](OC(=O)c4ccccc4)[C@@H]4[C@]5(OC(C)=O)CO[C@@H]5C[C@H](O)[C@@]4(C)C(=O)[C@H](OC(C)=O)C(=C2C)C3(C)C)[C@@H](NC(=O)c2ccccc2)c2ccccc2)O1 (stereo not given in full) | GI50 | 1.16 µM |
| CN(C)CCCC(=O)Nc1ccc(Cn2nnc3c2C(=O)c2nnn(Cc4ccc(NC(=O)CCCN(C)C)cc4)c2C3=O)cc1 | GI50 | 1.39 µM |
| Oc1ccc(-c2nc3ccc4[nH]ncc4c3c3c2CCCC3)c2cccnc12 | GI50 | 0.523 µM |
| COc1ccc(C(=O)N/N=C/c2ccc(O)cc2O)cc1Nc1ccnc(C(F)(F)F)c1 | GI50 | 0.891 µM |
| c1ccc2c(c1)ccc1c3ccccc3ccc21 | GI50 | > 50 µM |
